# systemName: T1, human ROR1 (hROR1) on cells (human, UniProt Q01973 30-937)
# T1 construct: whole, on cells; the cell line is named under assay; also called HEK293T-hROR1; 293T-hROR1
# T1 sequence (Q01973 30-937): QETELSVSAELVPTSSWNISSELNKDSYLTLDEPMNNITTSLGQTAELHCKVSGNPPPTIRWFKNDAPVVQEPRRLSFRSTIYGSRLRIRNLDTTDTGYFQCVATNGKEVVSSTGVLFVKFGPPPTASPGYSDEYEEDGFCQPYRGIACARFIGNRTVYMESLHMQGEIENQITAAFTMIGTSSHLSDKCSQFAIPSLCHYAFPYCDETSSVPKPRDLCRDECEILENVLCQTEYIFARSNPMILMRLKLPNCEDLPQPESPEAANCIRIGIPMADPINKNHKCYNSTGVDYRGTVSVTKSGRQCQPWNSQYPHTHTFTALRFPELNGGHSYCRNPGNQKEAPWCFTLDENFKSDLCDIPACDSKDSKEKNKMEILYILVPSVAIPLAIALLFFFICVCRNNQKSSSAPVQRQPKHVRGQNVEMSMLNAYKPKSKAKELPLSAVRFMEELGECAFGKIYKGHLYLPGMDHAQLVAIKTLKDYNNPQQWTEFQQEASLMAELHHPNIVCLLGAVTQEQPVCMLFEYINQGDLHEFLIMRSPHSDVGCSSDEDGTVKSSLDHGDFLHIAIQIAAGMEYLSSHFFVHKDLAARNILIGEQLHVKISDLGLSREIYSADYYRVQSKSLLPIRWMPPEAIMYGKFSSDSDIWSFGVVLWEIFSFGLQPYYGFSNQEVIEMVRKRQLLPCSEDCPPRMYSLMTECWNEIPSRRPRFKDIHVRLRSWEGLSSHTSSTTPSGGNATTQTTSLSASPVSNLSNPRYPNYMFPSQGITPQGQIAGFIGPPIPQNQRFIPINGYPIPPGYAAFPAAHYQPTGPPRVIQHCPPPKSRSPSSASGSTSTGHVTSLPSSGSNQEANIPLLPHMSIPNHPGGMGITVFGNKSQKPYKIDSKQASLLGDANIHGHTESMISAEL
# assayText: FACS, Panc-1 cells; further: test concentration or dose not given here
Listing: MFI of selected binders
Output spec: scalar in MFI, unitless text.

Record excerpt, results attached:
{"columns": ["binder", "MFI [MFI]"],
 "data": [
  ["PR002578 (antibody, human IgG1, kappa, V domains shown, PR001364 variant: VH G55A, VL N92Q; hIgG1; also called anti-ROR1 1015M3-D8(H: G55A; L: N92Q) hIgG1) VH: EVQLLESGGGVVQPGRSLRLSCAASGFTFSSFGMHWVRQAPGKGLEWVAVIWYDASDKDYADSVKGRFTISRDTSKNTLYLQMNSLRAEDTAVYYCAREQARSFDLWGRGTLVTVSS VL: DIVMTQSPSTLSASVGDRVTITCRASQTINNWLAWYQQKPGKAPKLLIYKASSLESGVPSRFSGSGSGTEFTLTISSLQPDDFATYYCQQYQSYSPMYTFGQGTKVEIKR", 6700],
  ["PR002567 (antibody, human IgG1, kappa, V domains shown, PR001354 variant: VH G55A; hIgG1; also called anti-ROR1 1015M2-C9(H: G55A) hIgG1) VH: QVQLVQSGGGVVQPGRSLRLSCAASGFTFSSYGMHWVRQAPGKGLEWVAIMWYDASDKDYADSVKGRFTISRDTSKNTLYLQMNSLRAEDTAVYYCAREQARSFDLWGRGTLVTVSS VL: DIVMTQSPSSLSASVGDRVTITCRASQTINNWLAWYQQKPGKAPKLLIYKASSLESGVPSRFSGSGSGTEFTLTISSLQPDDFATYYCQQYNSYSPMYTFGQGTKVEIKR", 7030],
  ["PR002573 (antibody, human IgG1, kappa, V domains shown, PR001364 variant: VL S93A; hIgG1; also called anti-ROR1 1015M3-D8(L: S93A) hIgG1) VH: EVQLLESGGGVVQPGRSLRLSCAASGFTFSSFGMHWVRQAPGKGLEWVAVIWYDGSDKDYADSVKGRFTISRDTSKNTLYLQMNSLRAEDTAVYYCAREQARSFDLWGRGTLVTVSS VL: DIVMTQSPSTLSASVGDRVTITCRASQTINNWLAWYQQKPGKAPKLLIYKASSLESGVPSRFSGSGSGTEFTLTISSLQPDDFATYYCQQYNAYSPMYTFGQGTKVEIKR", 3710]
]}

Notebook: PR002584 (antibody, human IgG1, kappa, V domains shown, PR001369 variant: VH D54E, VL S93A; hIgG1; also called anti-ROR1 1015M3-H10(H: D54E; L: S93A) hIgG1) VH: QVQLVESGGGVVQPGRSLRLSCAASGFTFSNYGIHWVRQAPGKGLEWVAIMWYEGSNTDYADSVKGRFTISRDTSKNTLFLQMNSLRAEDTAVYYCAREQARSFDLWGRGTLVTVSS VL: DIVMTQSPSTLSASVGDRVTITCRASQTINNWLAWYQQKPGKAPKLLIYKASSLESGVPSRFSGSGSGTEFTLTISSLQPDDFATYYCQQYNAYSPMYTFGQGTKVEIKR , MFI read as 3180

Notebook: PR002575 (antibody, human IgG1, kappa, V domains shown, PR001364 variant: VH D54E, VL N92Q; hIgG1; also called anti-ROR1 1015M3-D8(H: D54E; L: N92Q) hIgG1) VH: EVQLLESGGGVVQPGRSLRLSCAASGFTFSSFGMHWVRQAPGKGLEWVAVIWYEGSDKDYADSVKGRFTISRDTSKNTLYLQMNSLRAEDTAVYYCAREQARSFDLWGRGTLVTVSS VL: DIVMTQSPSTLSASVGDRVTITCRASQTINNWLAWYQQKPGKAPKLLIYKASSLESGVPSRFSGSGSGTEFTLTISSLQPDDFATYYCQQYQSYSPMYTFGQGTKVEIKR , MFI read as 3250
